// data source = patent US11492335B2

Biological target: recombinant human DAO (diamine oxidase) (Homo sapiens, UniProt P19801)
Construct: purchased R&D systems
Sequence (P19801 20-751): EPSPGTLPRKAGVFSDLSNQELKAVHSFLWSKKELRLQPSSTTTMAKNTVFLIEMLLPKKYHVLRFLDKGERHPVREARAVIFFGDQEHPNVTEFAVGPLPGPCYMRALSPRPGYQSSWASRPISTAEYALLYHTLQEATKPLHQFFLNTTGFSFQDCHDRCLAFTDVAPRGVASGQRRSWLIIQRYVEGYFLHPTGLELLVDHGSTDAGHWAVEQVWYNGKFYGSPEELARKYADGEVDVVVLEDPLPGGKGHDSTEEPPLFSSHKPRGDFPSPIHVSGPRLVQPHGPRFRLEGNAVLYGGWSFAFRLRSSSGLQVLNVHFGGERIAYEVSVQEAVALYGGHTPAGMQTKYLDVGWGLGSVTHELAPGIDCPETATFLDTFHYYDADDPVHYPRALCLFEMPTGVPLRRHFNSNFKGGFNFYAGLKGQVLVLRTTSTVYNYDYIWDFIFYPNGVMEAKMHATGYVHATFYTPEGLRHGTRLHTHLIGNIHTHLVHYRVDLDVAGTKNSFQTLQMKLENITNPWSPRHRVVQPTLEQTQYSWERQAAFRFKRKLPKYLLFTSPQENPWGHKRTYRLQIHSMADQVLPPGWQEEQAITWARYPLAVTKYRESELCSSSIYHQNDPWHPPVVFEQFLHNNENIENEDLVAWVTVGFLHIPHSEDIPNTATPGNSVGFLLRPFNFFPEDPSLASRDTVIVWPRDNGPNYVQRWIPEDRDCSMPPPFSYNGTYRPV
Experiment: Activity on recombinant human DAO, Amplex Red method, 1 mM putrescine substrate
Format: biochemical
Settings: recombinant human DAO, 1 mM putrescine; * = between 10 and 100 nM, ** = between 300 and 1000 nM; read-out: Inhibitory Activity (IC50, nM) DAO
Counter-ions that a name gives are not always drawn.
value type: IC50 (nM)

{"columns": ["compound", "value type", "assay result"],
 "data": [
  ["NC/C(=C\\F)Cn1ncn(-c2ncc(Br)s2)c1=O [Example 41, hydrochloride]", "IC50", 17],
  ["NC/C(=C/F)Cn1ncn(-c2cccc(Br)c2)c1=O [Example 3, hydrochloride]", "IC50", 542],
  ["Cc1cc(N2CCNCC2)cnc1-n1cnn(C/C(=C/F)CN)c1=O", "IC50", 4200],
  ["CC(=O)c1ccc(-c2cnc(-n3cnn(C/C(=C/F)CN)c3=O)c(C)c2)s1 [Example 132, hydrochloride]", "IC50", 280]
]}

----------
Target: recombinant human DAO (diamine oxidase) (Homo sapiens)
Construct: purchased R&D systems
Assay: Activity on recombinant human DAO, Amplex Red method, 1 mM putrescine substrate
Format: biochemical
Conditions: recombinant human DAO, 1 mM putrescine; * = between 10 and 100 nM, ** = between 300 and 1000 nM; read-out: Inhibitory Activity (IC50, nM) DAO
Counter-ions that a name gives are not always drawn.
Catalogue of IC50 values

{"columns": ["compound", "readout unit", "censoring sign", "IC50"],
 "data": [
  ["NC/C(=C/F)Cn1ncn(-c2cccc(-c3ccc(-c4nnc[nH]4)cc3)c2)c1=O [Example 58]", "nM", "<", 100],
  ["NC/C(=C/F)Cn1ncn(-c2ncc(Br)s2)c1=O [Example 40, hydrochloride]", "nM", "=", 25],
  ["NC/C(=C/F)Cn1ncn(-c2cccc(-c3ccc4c(c3)OCO4)c2)c1=O [Example 92, hydrochloride]", "nM", "=", 41],
  ["NC/C(=C\\F)Cn1ncn(-c2cccc(-c3ccc(N4CCOCC4)c(Cl)c3)c2)c1=O [Example 76, hydrochloride]", "nM", "<", 100]
]}

----------
Target: recombinant human MAO-B (monoamine oxidase-B) (Homo sapiens, UniProt P27338)
Construct: purchased Sigma-Aldrich
Sequence (P27338 1-520): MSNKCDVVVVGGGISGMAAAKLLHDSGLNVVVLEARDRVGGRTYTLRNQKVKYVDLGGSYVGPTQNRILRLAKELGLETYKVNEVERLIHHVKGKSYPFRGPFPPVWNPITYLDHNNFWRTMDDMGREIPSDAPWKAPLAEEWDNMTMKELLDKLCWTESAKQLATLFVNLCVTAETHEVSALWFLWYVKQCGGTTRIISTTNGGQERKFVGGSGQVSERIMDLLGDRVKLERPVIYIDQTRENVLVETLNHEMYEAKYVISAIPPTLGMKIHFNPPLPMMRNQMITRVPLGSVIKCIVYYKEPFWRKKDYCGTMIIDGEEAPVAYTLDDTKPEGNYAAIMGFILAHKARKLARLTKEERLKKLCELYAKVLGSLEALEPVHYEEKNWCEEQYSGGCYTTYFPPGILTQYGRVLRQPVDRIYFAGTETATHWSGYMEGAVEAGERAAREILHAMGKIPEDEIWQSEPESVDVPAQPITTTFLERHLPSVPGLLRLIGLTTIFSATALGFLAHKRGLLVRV
Experiment: Activity on recombinant human MAO-B, Amplex Red method, 1 mM benzylamine substrate
Assay type: biochemical
Settings: 1 mM benzylamine, read-out: Inhibitory Activity (IC50, nM) MAO-B
Structures can show the parent of a compound that is named as a salt.
Checkbox rule: IC50 lower than 300 nM = TRUE; IC50 not lower than 300 nM = FALSE.

{"columns": ["molecule", "class assignment"],
 "data": [
  ["Cc1cc(-n2cnn(C/C(=C/F)CN)c2=O)ccc1Br [Example 16, hydrochloride]", "TRUE"],
  ["Cc1cc(-c2ccc(-c3ncon3)cc2)cnc1-n1cnn(C/C(=C/F)CN)c1=O", "FALSE"],
  ["NC/C(=C/F)Cn1ncn(-c2ccc(Br)cn2)c1=O [Example 29, hydrochloride]", "TRUE"],
  ["NC/C(=C\\F)Cn1ncn(-c2ccc(Br)cc2F)c1=O [Example 12, hydrochloride]", "TRUE"],
  ["NC/C(=C\\F)Cn1ncn(-c2cccc(-c3cccc(-c4ccc5c(c4)OCO5)c3)c2)c1=O [Example 71, hydrochloride]", "TRUE"],
  ["Cc1cc(-n2cnn(C/C(=C/F)CN)c2=O)cnc1-c1ccc2sc(N)nc2c1 [Example 118, hydrochloride]", "FALSE"],
  ["NC/C(=C\\F)Cn1ncn(-c2cccc(-c3ccc(-c4ncon4)cc3)c2)c1=O", "FALSE"],
  ["NC/C(=C\\F)Cn1ncn(-c2c(F)cc(Br)cc2F)c1=O [Example 22, hydrochloride]", "TRUE"],
  ["CN(C)c1ccc(-c2cccc(-n3cnn(C/C(=C/F)CN)c3=O)c2)cc1 [Example 51, hydrochloride]", "FALSE"],
  ["Cc1cc(Br)cnc1-n1cnn(C/C(=C/F)CN)c1=O [Example 32, hydrochloride]", "TRUE"],
  ["CS(=O)(=O)c1ccc(-c2cccc(-c3cccc(-n4cnn(C/C(=C/F)CN)c4=O)c3)c2)cc1", "FALSE"],
  ["NC/C(=C\\F)Cn1ncn(-c2ncc(Br)cc2F)c1=O [Example 36, hydrochloride]", "FALSE"],
  ["NC/C(=C/F)Cn1ncn(-c2nccs2)c1=O [Example 39, hydrochloride]", "FALSE"],
  ["NC/C(=C/F)Cn1ncn(-c2ncc(Br)s2)c1=O [Example 40, hydrochloride]", "FALSE"],
  ["Cc1ccc(-c2cccc(-n3cnn(C/C(=C/F)CN)c3=O)c2)c2cccnc12 [Example 105, hydrochloride]", "FALSE"],
  ["Cc1c(-c2ccc(-c3ccon3)cc2)cccc1-n1cnn(C/C(=C/F)CN)c1=O", "FALSE"],
  ["CC(=O)Nc1ccc(-c2cccc(-n3cnn(C/C(=C/F)CN)c3=O)c2)cc1 [Example 57, hydrochloride]", "FALSE"]
]}

----------
# log10 of IC50 annotations
Target: recombinant human DAO (diamine oxidase) (Homo sapiens, UniProt P19801)
Construct: purchased R&D systems
Experiment: Activity on recombinant human DAO, Amplex Red method, 1 mM putrescine substrate
Assay type: biochemical
Conditions: recombinant human DAO, 1 mM putrescine; * = between 10 and 100 nM, ** = between 300 and 1000 nM; read-out: Inhibitory Activity (IC50, nM) DAO
Counter-ions that a name gives are not always drawn.
value type: log10 of IC50 (log10 of the value in nM)

{"columns": ["compound", "log10 of IC50"],
 "data": [
  ["Cc1cc(-c2ccc(-c3noc(C4CC4)n3)cc2)cnc1-n1cnn(C/C(=C/F)CN)c1=O [Example 141, hydrochloride]", 2.04],
  ["NC/C(=C\\F)Cn1ncn(-c2ncc(Br)cc2F)c1=O [Example 36, hydrochloride]", 1.36],
  ["NC/C(=C\\F)Cn1ncn(-c2cccc(-c3ccc(N4CCOCC4)cc3)c2)c1=O [Example 74, hydrochloride]", 2.45],
  ["NC/C(=C\\F)Cn1ncn(-c2ccc(Br)cc2)c1=O [Example 2]", 2.08],
  ["NC/C(=C/F)Cn1ncn(-c2ccc(F)cc2)c1=O [Example 5]", 3.04],
  ["NC/C(=C\\F)Cn1ncn(-c2ccc(-c3ccc4c(c3)OCO4)cc2F)c1=O [Example 45, hydrochloride]", 0.20],
  ["Cc1c(-c2ccc(-c3ccon3)cc2)cccc1-n1cnn(C/C(=C/F)CN)c1=O [Example 108]", 3.54],
  ["Cc1cc(-n2cnn(C/C(=C\\F)CN)c2=O)ccc1Br [Example 15]", 1.93],
  ["Cc1cc(-c2ccc(-c3ncon3)cc2)cnc1-n1cnn(C/C(=C/F)CN)c1=O [Example 139]", 2.57]
]}

----------
Molecular target: recombinant human VAP-1 (Homo sapiens, UniProt Q16853)
Construct: purchased R&D systems
Sequence (Q16853 1-763): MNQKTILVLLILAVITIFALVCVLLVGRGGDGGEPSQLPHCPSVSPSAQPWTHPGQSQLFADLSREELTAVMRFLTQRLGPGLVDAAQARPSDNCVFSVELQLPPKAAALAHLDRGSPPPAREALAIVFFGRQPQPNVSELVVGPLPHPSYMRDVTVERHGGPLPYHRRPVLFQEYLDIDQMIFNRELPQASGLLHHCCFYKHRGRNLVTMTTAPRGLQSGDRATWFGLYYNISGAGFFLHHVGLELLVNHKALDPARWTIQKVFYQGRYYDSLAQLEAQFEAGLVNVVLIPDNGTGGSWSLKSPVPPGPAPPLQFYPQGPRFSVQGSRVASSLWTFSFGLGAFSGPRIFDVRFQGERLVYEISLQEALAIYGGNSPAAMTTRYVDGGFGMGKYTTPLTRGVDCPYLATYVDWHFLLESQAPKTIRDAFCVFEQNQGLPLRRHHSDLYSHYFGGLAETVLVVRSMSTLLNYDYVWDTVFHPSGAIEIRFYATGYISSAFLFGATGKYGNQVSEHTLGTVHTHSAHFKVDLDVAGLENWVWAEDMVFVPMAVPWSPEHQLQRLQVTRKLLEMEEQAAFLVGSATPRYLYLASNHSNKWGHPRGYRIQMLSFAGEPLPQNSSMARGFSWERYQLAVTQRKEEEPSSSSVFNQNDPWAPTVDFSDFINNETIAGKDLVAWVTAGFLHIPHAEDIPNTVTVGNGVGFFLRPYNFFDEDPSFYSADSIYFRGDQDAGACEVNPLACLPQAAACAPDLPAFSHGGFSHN
Assay: Activity on recombinant human VAP-1, Amplex Red HRP-coupled hydrogen peroxide assay, benzylamine substrate
Assay type: biochemical
Conditions: recombinant human VAP-1, benzylamine substrate, 30 min preincubation at 37° C.; read-out: Inhibitory Activity (IC50, nM) human VAP-1
Structures can show the parent of a compound that is named as a salt.
value type: IC50 (nM)

{"columns": ["molecule", "assay result"],
 "data": [
  ["Cc1cc(-c2cccc(-c3nnc[nH]3)c2)cnc1-n1cnn(C/C(=C/F)CN)c1=O", 0.5],
  ["CS(=O)(=O)c1ccc(-c2cccc(-n3cnn(C/C(=C\\F)CN)c3=O)c2)cc1 [Example 53, hydrochloride]", 2.5],
  ["Cc1cc(-n2cnn(C/C(=C\\F)CN)c2=O)ccc1Br", 2.2],
  ["Cc1cc(-c2ccc(C(F)(F)F)nc2)cnc1-n1cnn(C/C(=C/F)CN)c1=O [Example 148, hydrochloride]", 0.4],
  ["NC/C(=C\\F)Cn1ncn(-c2c(F)cc(Br)cc2F)c1=O [Example 22, hydrochloride]", 1.4],
  ["NC/C(=C\\F)Cn1ncn(-c2ccc(OCc3ccccc3)cc2)c1=O [Example 8, hydrochloride]", 0.6],
  ["NC/C(=C\\F)Cn1ncn(-c2cccc(-c3ccc(C(F)(F)F)nc3)c2)c1=O [Example 84, hydrochloride]", 0.78],
  ["Cc1cc(-c2ccc(-c3nc[nH]n3)cc2)ncc1-n1cnn(C/C(=C/F)CN)c1=O", 0.7],
  ["NC/C(=C\\F)Cn1ncn(-c2ccc(Br)cn2)c1=O [Example 30, hydrochloride]", 0.61],
  ["NC/C(=C/F)Cn1ncn(-c2cccc(-c3ccc4c(c3)OCCO4)c2)c1=O [Example 94, hydrochloride]", 2],
  ["CC(=O)Nc1cc(-c2cnc(-n3cnn(C/C(=C/F)CN)c3=O)c(C)c2)ccn1 [Example 147, hydrochloride]", 0.55],
  ["Cc1c(-c2ccc(N3CCOCC3)nc2)cccc1-n1cnn(C/C(=C/F)CN)c1=O", 4.2],
  ["NC/C(=C/F)Cn1ncn(-c2cccc(-c3cccc(-c4nnc[nH]4)c3)c2)c1=O", 1.3],
  ["Cc1cc(-c2cccc(-n3cnn(C/C(=C/F)CN)c3=O)c2)ccc1N1CCOCC1 [Example 77, hydrochloride]", 0.8],
  ["NC/C(=C/F)Cn1ncn(-c2ncc(Br)s2)c1=O [Example 40, hydrochloride]", 1.1],
  ["Cc1c(-c2ccc3c(c2)OCCO3)cccc1-n1cnn(C/C(=C/F)CN)c1=O", 2.5],
  ["NC/C(=C\\F)Cn1ncn(-c2cccc(-c3c[nH]c4ccccc34)c2)c1=O [Example 100, hydrochloride]", 0.92],
  ["NC/C(=C\\F)Cn1ncn(-c2cccc(-c3cnc(O)c(C(F)(F)F)c3)c2)c1=O [Example 88, hydrochloride]", 1.1],
  ["NC/C(=C\\F)Cn1ncn(-c2cccc(-c3ccc(-c4ncon4)cc3)c2)c1=O", 0.65],
  ["NC/C(=C\\F)Cn1ncn(-c2cccc(-c3cc4ccccc4s3)c2)c1=O [Example 101, hydrochloride]", 0.9],
  ["CC(=O)N1CCN(c2ccc(-c3cccc(-n4cnn(C/C(=C/F)CN)c4=O)c3)cc2)CC1 [Example 72, hydrochloride]", 1.1],
  ["COc1ccc(-c2cccc(-n3cnn(C/C(=C/F)CN)c3=O)c2)cn1 [Example 83, hydrochloride]", 0.88],
  ["CC(=O)Nc1ccc(-c2cccc(-n3cnn(C/C(=C\\F)CN)c3=O)c2)cc1 [Example 56, hydrochloride]", 0.75],
  ["Cc1cc(-n2cnn(C/C(=C\\F)CN)c2=O)cnc1Br [Example 26, hydrochloride]", 5.3],
  ["CC(C)c1nc(-c2ccc(-c3cccc(-n4cnn(C/C(=C/F)CN)c4=O)c3)cc2)no1 [Example 64, hydrochloride]", 3.2],
  ["Cc1c(-c2ccc3c(c2)OCO3)cccc1-n1cnn(C/C(=C/F)CN)c1=O", 2.8],
  ["Cc1cc(-c2ccc(-c3nnc[nH]3)cc2)cnc1-n1cnn(C/C(=C\\F)CN)c1=O", 3.2],
  ["Cc1cc(-c2ccc(-c3noc(C(C)C)n3)cc2)cnc1-n1cnn(C/C(=C/F)CN)c1=O [Example 142, hydrochloride]", 0.63],
  ["Cc1c(-c2ccc(-c3ccon3)cc2)cccc1-n1cnn(C/C(=C/F)CN)c1=O", 2.2],
  ["CC(=O)Nc1ccc(-c2ccc(-n3cnn(C/C(=C\\F)CN)c3=O)nc2)cc1 [Example 130, hydrochloride]", 0.39],
  ["CC(=O)Nc1ccc(-c2cnc(-n3cnn(C/C(=C/F)CN)c3=O)c(C)c2)cc1 [Example 134, hydrochloride]", 0.55]
]}
